# method notes: soluble on expression in E. coli; label from the status in PepcDB or PDB records
property: soluble on expression in E. coli

MGSDKIHHHHHHMQQHPVVSREEWLVKRRALLAREKEAIHQRDAITAERLALPWVKVDTRYVFDTASGKKTLADLFDGRSQLMIYHFMLGPGWAAGCPGCSLVADHLGGTLAHLNHHDVTLIAVSRAPLPEIEAYRQRMGWQFPWASSFGTTFNHDFRVSFTPDELASGAVDYNYTSTQSAQANDELPGLSAFYKDAAGNVYHTYSTYARGLEDLIGTFLILDRAPKGRNESGPMEWVRRHDEYGDAPKANACYEG: not soluble
MKLDDLNLFRQVVENGSYTAASRKTLIPVATITRRIQALEDSLDIRLLNRHARKLSLTEAGQKFYDECAPILATLVNTSEYLGEECRGAAGKLKIAAPSNLTKRMIQPILNKFMLLYPDISINLTMSNQPEQLDPTDWDIIFRVGKQRDSSLIARQIGSLEDILVASPSYLEKNSEPTHAQELHKHSLLKGNPLMRWRLTNKDGESVTITDAGRFEASELNVIRMACSNGLGITLMPDIMISQYLEEGSLIRVLSDWSANPRDIYMIYNYKDHQPEKVRLFIDFVSNHIPD: not soluble

* * *

# method notes: soluble on expression in E. coli; label from the status in PepcDB or PDB records
property: soluble on expression in E. coli

Below, 5 sequences whose answers are already recorded.
KKEDIVRIHASSGTSGKPTVVGYTAKDIETWSDLIARSLTMIGLSKGDTIQNSMNYGLFTGGLGFHYGVERMGAMIVPAATGNTARQLEMMIDFGVTAVHCTPSYAFYLAETAEELDLIDKLSLKAAIFGGEPWSENTRKQLEKRLNLKAYDCYGLSEMFGPGVGFECQEQDGLHIW: not soluble
MITMPKLFIYHANQCNPKKCTSLKMAKMNKAILLKNPYKVPKNSLILNPYAEKALSPEDKEIVEKFGITALDCSWKEAELMFKKFKFKNQRSLPFLVACNPINYGKPCMLSTLEAFIAALYITNFKDEAWDLTSCFKWAETFIKVNYELLERYSNAKNSMEVVEIQQDFLRKLEHHHHHH: soluble
DSKDTRQFVKSIAKDAHRIGQDNDIYASVMIAQAILESDSGRSALAKSPNHNLFGIKGAFEGNSVPFNTLEADGNKLYSINAGFRKYPSTKESLKDYSDLIKNGIDGNRTIYKPTWKSEADSYKDATSHLSKTYATDPNYAKKLNSIIKHYQL: not soluble
GMLTDMQRDSASSSTVTTEQIVYGALPLTTINEPECRAIAITSINGSATLSGVSGPMGDQTDADLLIQLRGWADAIVVGAETARKENYGPVVLPHGIKNQRQKLGRCGLPKLTLLSKSLYFDFSSELFSPDLPSELSPLVITQQPANNSEQWDQRLQKLIDVGVEVIVAPTSTNPLKIAFDALHARRLKKISIEGGPSVYRQALSLGIVDRLHLTIAPNIICPVESPLFGKISDDSFTTRLVLEMLSSSPNGLIFSRYKVIRDTLGNPTQ: soluble
SMITIKFDLNRYSCSWGAGGAFGGNRGLRPIPPEKGIFPLDHLHECDAEKKEYLGCLKSSAHKSEQCRHLSKKYLQCRMAKNLMAKQDMAELGFSGVKELDSTEDKNTESIEH: soluble

**Query** Value lookup for soluble on expression in E. coli; key = MGSDKIHHHHHHMNLQGLLLFDIDGVIRDVAASYRRAIQETVHHYSGWRPSVAEIDALKTEGIWNNDWDASLELLRRDQKSRNQALELPSREQLIEVFSRFYFGGDPNGDPSNWQGFIRNEPLLVNHRFFEELSSLGFAWGFVSGAEPPSARFVLEQRLGLKHPTLIAMGEAPDKPDPTGLLQLASQLAGRRLGQGVPTVAYLGDTVADVRTVINARQQQPEQQWMSLAVAPPHLHGIEQQEARNAYEDRLKQAGADHILSCTTDAIETLKNW
**Result** not soluble

**Query** Data request, read-out soluble on expression in E. coli, for MGSDKIHHHHHHMEPKYTSFDKSAKTCIRQQVITEDLSWAHYQNAGERLYYQNDTQHTLSMYLDGGYETHRTDIKADYGAPSKFCLMPQGCQSHWQLGQPQQFMHLYFSDEHLKKLAVRVFDKDPRQVRLPELTFVDNPRLEALFRHQVAGLNWQTSDNHLMMEQVTDTVLVTLLQSSGFNLSVGPIKGGLAPKVAKAIKEFIYCHSHRQIYLSELAEIAQLSEYHFCRMFKCQFAMTPQEYLLQVRIEKVKQSLSHSTQSLTDIALNNGFANQSHMGRYFKKLSGMSPGEYQKHHQGR
**Result** not soluble

* * *

# method notes: soluble on expression in E. coli; label from the status in PepcDB or PDB records
property: soluble on expression in E. coli

// solved cases for soluble on expression in E. coli follow
MKSVIIVGAGIGGLCLAQGLAKAGIEFEVWEADAGPQVRGQGYRLRIDAMGQRALRQCLPPDLFELFRASCAVSGPARFVDPQLNPLPGRRPENWRENADAGEAGGDLSADRQVLRDILSHGLAPQIRWGRRARGFERGGDGIVVHCADGSEHGAALVVAADGLHSPLRRQWLPQAEPEAIGALNLYGKTPLDGIDPALLAGPTIVFADGWTLVVEPMRFRAAMSGLAARHAPDCRLSPTDDYVYWAMFGREACLGGSLSGEEDAAGWRRRIEAASGGLHPGLSDLLRRTAPEAVMGRAVRMAAGVPSWPPGRLTVLGDAIHAMSPAGGVGANTALADAAMLAVCLADGDVDRAVARYEADMRGRAERALVATRAGTERLLRRLLEHHHHHH: soluble
MGSDKIHHHHHHMISVGKGKIMITPDHNIIKPIAIVLPQFHPIRENNLWWGEGFTEWTNVVKGRPRFRGHYQPHLPKDLGYYDLRLPETRKAQAALATKYGIYGFCYYHYWFNGRRILESPVDAMLESGEPDFPFMLCWANENWTRNWDGSYNKVLLEQKYSKEDFVNHARHLIRYFKDDRYIKIDGRPVFAIYKDDIGEDIEKYLLLFRNELLKNSINVFLCRFERNIGTSRDLNRAFQVFDAGIEFQPLARQFSYLINYNNRLSRRIYKTLKKHFCFCKNIDDVYVYSHLVDNDLKYDFQQGWPIFPGVCPGWDNSARRRDTTAIIFDKSTPEIFKLWVREKIRITDWNLLPERFLFVNAWNEWAEGNHLEPCEKWGTQYLAALQAGINEM: not soluble
MGSDKIHHHHHHVQVVSISSLKGGVGKTSVTTGLASAALAAGIPTLVVDLDPHADASTALGVQPDEQLDIGRMLKSPRRARLSQNVVTSGWVARENYNGARPAVLDVAVGSAYTGIYDRPDLGRRDLRRLSAVLAGTDKYQLILVDCPPSLNGLTRMAWSASDKVALVAEPGLFSVAGTERTMRAIQLFRQEFAPNLSPAGIIANRVRSGSSEHAFRLAEMQSMFGELLLTPYIPEQANWQQIQGAAHSVHHWPGDSAKNAASLFNTLLDNLMASNDAGSAGALRERSLR: not soluble
MGSDKIHHHHHHMTKLDSFHLGELYRELRVARGLKMKDVVSDKLSQAQLSKFENGQTMLSADKLLTAISAIHMSFAEFEHAYYQYEDSSFFKQAKLISKYHSNKNIEGLEKLLIIHDNNSETYDVYDKLNKLVIRCAIHDLNPEYIISDDDKDFITTYLYSIEEWTEYELYIFGNTLQVLSDSDLIFLSKSFIERDSLYLSIPNNNFRTQLVVLNIIFVLLERKKDYCVHYFMKHLESILTYQDMFVKTVLIFLKKVLNYREGKGTHLIDLKKYIHDVEELGHEDVAEFLKDNIVNLL: not soluble

**Query** Look up soluble on expression in E. coli: MSDVKGKSTSGRGLTPKQEKFCQLYIELGNASEAYRQSYDCSKMTTEVINVKASELLNKNGKITVRVEELRQAHQQRHNLTLDNIIADLQEYRDICMGRKPLTITTVVKNAQEGTAQSVNTECFVFEPTGANKALELLGKHLGMFTNKVDVTTDGKPLPTVINVTFSDEPA
**Result** not soluble

**Query** # query: soluble on expression in E. coli of entry MSLTLAFAYVRASTIEEVRQGSNERQKEAIRQYTYQKGYELEIFEDKAKSGRNTLRPEFERMLKSLDRRPQIVIVSKIDRFARSLSDLLKTLEYLDQNGVGFVSVNDPGIDTTTPNGRLLLQILGAFAEFERNMINSRTKAGREQAQSKGVKFGRPPLKTRNGSFIDRRKVMELKQKGLSARAIAKSLECSTTPILRILRENEGHHHHHH
**Result** soluble

**Query** State the recorded soluble on expression in E. coli for this entry: MNQAIGGSFDDVIGNHQADTAMIVQISADRKEINLVSIPRDSLVDVPQCETSKGTIPAQYNVMFNSIFAGAYKTGGDLSSAASCTLNAVNSLTGLNIQNFIVVDFAGLVKMIDSVGGVDLCIPQNVNDPYTGLNLDKGMHHLDGVAATQYARIRHGIGDGSDTSRTTRQQYLIKQLMSEALSKNLFTDTAQLYQLAKSALKSLNISQGMADTAALAGLAMSLKNFTMTNLQTQTVPVVPAPSDPNRSVWTDEADNLWEKMRAGKPIFDTADSNSGGSSDTSSDNSASSDDSGTTDSNQSDTTAETPDPVTGLITKSDGTLVDPSTGGTVDPDDGSIHDATTGQYIGLADRYLNATVCAVPAKNLEHHHHHH
**Result** soluble

**Query** Dear colleague, I am looking for the recorded soluble on expression in E. coli of the following sequence: AIAAQDENKEQPKKDWKTIISPQYWKNSVSLLFTDAEQGNFVLPSLQSVSFSKASETIGKQVKESAKELGALFSAEECPSQQGSKEAPWEVLTAREKPFAKEIEERILKITSDCYRSRKEREEIFLSLSSLKDSHFRWSNNSSEKMKQAMAALEKDPILPDLRAGLVPKRMSEENFWRQYFYLVEKVKKSVVTNSQFGLFDEWESWSDTTSHPTLEHSQENSDLDNEVDQVLNDVLE
**Result** soluble

**Query** If you can, please state the reported soluble on expression in E. coli value of MQKQNIVILGSTGSIGKSTLSVIENNPQKYHAFALVGGKNVEAMFEQCIKFRPHFAALDDVNAAKILREKLIAHHIPTEVLAGRRAICELAAHPDADQIMASIVGAAGLLPTLSAVKAGKRVLLANKESLVTCGQLFIDAVKNYGSKLLPVDSEHNAIFQSLPPEAQEKIGFCPLSELGVSKIILTGSGGPFRYTPLEQFTNITPEQAVAHPNWSMGKKISVDSATMMNKGLEYIEARWLFNASAEEMEVIIHPQSIIHSMVRYVDGSVITQMGNPDMRTPIAETMAYPHRTFAGVEPLDFFKIKELTFIEPDFNRYPNLKLAIDAFAAGQYATTAMNAANEIAVQAFLDRQIGFMDIAKINSKTIERISPYTIQNIDDVLEIDAQAREIAKTLLRE .
**Result** not soluble

**Query** Quick one: soluble on expression in E. coli for MAHHHHHHMIGELVLLIGDFHSPMRNLGLPDCFKDLLKTDKIKHVLCTGNVGCRENLELLKNIADSVHITKGDMDDEYDFPEDTSLTIGDFKISLIHGHQIIPWGDTNALLQWQKKYDSDIVISGHTHKNSIVRYEGKYFINPGSATGAFQPWLSQPTPSFILMAVAKSSIVVYVYEEKNGKTNVEMSEL ?
**Result** soluble
